// data source = patent US8575193B2

Property: IC50; scope: individual compounds
# Target or system: rHDAC1 (Homo sapiens, UniProt Q13547)
# Construct: FLAG; made in house
# Sequence (Q13547 whole entry): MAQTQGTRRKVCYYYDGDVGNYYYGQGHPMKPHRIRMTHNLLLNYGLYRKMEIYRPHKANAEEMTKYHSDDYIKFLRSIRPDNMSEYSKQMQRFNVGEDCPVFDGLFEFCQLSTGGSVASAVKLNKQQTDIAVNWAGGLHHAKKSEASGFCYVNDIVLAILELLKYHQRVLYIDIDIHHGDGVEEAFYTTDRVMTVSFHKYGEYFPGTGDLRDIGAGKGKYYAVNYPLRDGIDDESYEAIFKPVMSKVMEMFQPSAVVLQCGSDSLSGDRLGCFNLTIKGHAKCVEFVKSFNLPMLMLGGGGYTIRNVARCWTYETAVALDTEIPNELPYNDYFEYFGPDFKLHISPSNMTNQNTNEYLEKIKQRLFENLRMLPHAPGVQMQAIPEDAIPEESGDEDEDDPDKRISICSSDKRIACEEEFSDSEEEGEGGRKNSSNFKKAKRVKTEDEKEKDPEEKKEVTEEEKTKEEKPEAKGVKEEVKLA
# Test name: rHDAC1 enzymatic assay (recombinant FLAG-HDAC1)
# Type: biochemical
# Condition: FLAG-HDAC1 from HEK293; 6 μM Ac-NH-GGK(Ac)-AMC, 3 h at 30° C.; read-out: rHDAC1 [pIC50] (converted)
Counter-ions that a name gives are not always drawn.

[Q] Supply IC50 measured with rHDAC1 (Homo sapiens, UniProt Q13547) for O=C(NO)c1ccc2c(c1)CCN(C(=O)CCc1cccnc1)C2 [Example 7, hydrochloride] .
[A] 10 to 100 µM

[Q] Supply IC50 measured with rHDAC1 (Homo sapiens, UniProt Q13547) for CNC(=O)N1CCc2cc(C(=O)NO)ccc2C1 .
[A] 0.1 to 10 µM

[Q] Supply IC50 measured with rHDAC1 (Homo sapiens, UniProt Q13547) for O=C(NO)c1ccc2c(c1)CCN(C(=O)Cc1c[nH]c3ccccc13)C2 [Example 1, hydrochloride] .
[A] 0.1 to 10 µM

[Q] Supply IC50 measured with rHDAC1 (Homo sapiens, UniProt Q13547) for COCCCNC(=O)N1CCc2cc(C(=O)NO)ccc2C1 .
[A] 0.1 to 10 µM

Next:
[Q] Supply IC50 measured with rHDAC1 (Homo sapiens, UniProt Q13547) for COCCCOC(=O)N1CCc2cc(C(=O)NO)ccc2C1 .
[A] 10 to 100 µM

====

# Target or system: rHDAC8 (Homo sapiens)
# Construct: FLAG; made in house; host or cells: baculovirus-infected Sf21 insect cells
# Sequence (Q9BY41 1-377): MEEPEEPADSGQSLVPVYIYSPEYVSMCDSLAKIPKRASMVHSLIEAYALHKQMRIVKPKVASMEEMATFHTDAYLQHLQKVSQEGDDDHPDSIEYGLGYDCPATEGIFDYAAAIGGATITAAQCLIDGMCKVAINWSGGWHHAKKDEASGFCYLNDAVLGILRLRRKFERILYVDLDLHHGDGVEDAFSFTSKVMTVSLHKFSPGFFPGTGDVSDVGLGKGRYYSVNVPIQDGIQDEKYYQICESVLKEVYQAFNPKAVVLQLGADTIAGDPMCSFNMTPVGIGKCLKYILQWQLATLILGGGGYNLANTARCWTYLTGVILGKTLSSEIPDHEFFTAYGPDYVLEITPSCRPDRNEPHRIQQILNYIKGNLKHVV
# Test name: rHDAC8 enzymatic assay (recombinant FLAG-HDAC8)
# Type: biochemical
# Condition: FLAG-HDAC8 from insect cells; 50 μM Ac-RHK(Ac)K(Ac)-AMC, 3 h at 30° C.; read-out: rHDAC8 [pIC50] (converted)
# Protocol: Human HDAC1 and HDAC6 fused with the FLAG epitope are stably expressed in HEK293 cells while human HDAC3 and HDAC8 fused with the FLAG epitope are overexpressed in baculo-virus infected insect (Sf21) cells. […] The HDAC enzyme activity assay is done as described by Wegener et al. (Chem. & Biol. 10, 61-68, 2003). […] The corresponding pIC50 values of the compounds for HDAC inhibitory activity are determined from the concentration-effect curves by means of non-linear regression (Graphpad Prism software). […]
Where a name gives a salt, the structure may show the parent alone.
Property: IC50; scope: individual compounds

[Q] Query IC50 for CC(=O)N1CCc2cc(C(=O)NO)ccc2C1
[A] 1000 to 10000 nM

Next:
[Q] Query IC50 for Cc1nccn1CC(=O)N1CCc2cc(C(=O)NO)ccc2C1 [Example 10, hydrochloride]
[A] 1000 to 10000 nM

[Q] Query IC50 for COc1ccc2[nH]c(C(=O)N3CCc4ccc(C(=O)NO)cc4C3)cc2c1
[A] 10 to 1000 nM

[Q] Query IC50 for CNC(=O)N1CCc2cc(C(=O)NO)ccc2C1
[A] 1000 to 10000 nM

[Q] Query IC50 for O=C(NO)c1ccc2c(c1)CN(C(=O)Cc1cccnc1)CC2 [Example 19, hydrochloride]
[A] 10 to 1000 nM

[Q] Query IC50 for O=C(NO)c1ccc2c(c1)CCN(C(=O)Cc1ccccn1)C2 [Example 14, hydrochloride]
[A] 1000 to 10000 nM

[Q] Query IC50 for COCCCOC(=O)N1CCc2cc(C(=O)NO)ccc2C1
[A] 1000 to 10000 nM

[Q] Query IC50 for COCCOCC(=O)N1CCc2cc(C(=O)NO)ccc2C1
[A] 1000 to 10000 nM

[Q] Query IC50 for O=C(NO)c1ccc2c(c1)CN(C(=O)NCCc1ccccc1)CC2
[A] 10 to 1000 nM

[Q] Query IC50 for COCCCNC(=O)N1CCc2cc(C(=O)NO)ccc2C1
[A] 1000 to 10000 nM

[Q] Query IC50 for O=C(NO)c1ccc2c(c1)CN(C(=O)Cc1c[nH]c3ccccc13)CC2
[A] 10 to 1000 nM

[Q] Query IC50 for COc1ccc2[nH]c(C(=O)N3CCc4cc(C(=O)NO)ccc4C3)cc2c1
[A] 1000 to 10000 nM

[Q] Query IC50 for O=C(NO)c1ccc2c(c1)CCN(C(=O)Cc1cccnc1)C2 [Example 8, hydrochloride]
[A] 1000 to 10000 nM

[Q] Query IC50 for O=C(NO)c1ccc2c(c1)CCN(C(=O)CCc1cccnc1)C2 [Example 7, hydrochloride]
[A] 1000 to 10000 nM
